TESTED ON: D(4) dopamine receptor (Homo sapiens, UniProt P21917)
Sequence (P21917 whole entry): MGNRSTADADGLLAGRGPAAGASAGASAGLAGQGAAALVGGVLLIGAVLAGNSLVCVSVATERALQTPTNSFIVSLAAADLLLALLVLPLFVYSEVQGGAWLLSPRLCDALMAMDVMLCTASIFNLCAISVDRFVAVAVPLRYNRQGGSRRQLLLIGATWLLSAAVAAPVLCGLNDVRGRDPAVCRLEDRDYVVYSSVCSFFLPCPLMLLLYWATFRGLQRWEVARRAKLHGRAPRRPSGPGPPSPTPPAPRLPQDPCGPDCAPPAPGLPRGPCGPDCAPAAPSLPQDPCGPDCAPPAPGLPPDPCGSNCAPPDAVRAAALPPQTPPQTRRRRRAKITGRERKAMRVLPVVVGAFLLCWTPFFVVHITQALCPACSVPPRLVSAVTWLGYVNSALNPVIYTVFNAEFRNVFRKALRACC
READOUT TYPE: pIC50
Note: pIC50 values are expressed as the negative base-10 logarithm of concentration in M.

# count of solved cases: 3
[[record]]
compound = "COc1ccccc1N1CCN(CC(=O)NC2CCc3c(cccc3OC)C2)CC1 (centres undefined)"
reported_value = 6.07

[[record]]
compound = "COc1ccc(OC)c(C(=O)NCCN2CCN(c3ccccc3OC)CC2)c1"
reported_value = 8.11

[[record]]
compound = "COc1cccc(C(=O)NCCN2CCN(c3ccc(Cl)cc3)CC2)c1"
reported_value = 10.24


Pending compound:
Input: # pIC50 lookup, item COc1ccc2c(c1)CC(NC(=O)CN1CCN(c3ccccc3OC)CC1)CC2 (centres undefined)
Output: 6.33

meta.source: ChEMBL document CHEMBL1131412
